Below, each entry is listed alongside its reported pKd.
- system-tested: HLA-A*69:01
- experiment-notes: IEDB peptide-MHC binding, purified MHC/direct/fluorescence; filed as Kd, often an IC50 or EC50 that approximates it; bounds were set here for any values at or beyond the usual limits of such assays
- recorded-conditions: source organism: Yellow fever virus
pKd: −log10 of the molar value.

GSRAYRNAL: ≤ 4.70

QUERY: Entry `SCRVKLSAL` , system HLA-A*69:01: what pKd was measured?
RESULT: ≤ 4.70

###

- system-tested: HLA-B*45:01
- experiment-notes: IEDB peptide-MHC binding, purified MHC/competitive/radioactivity; filed as Kd, often an IC50 or EC50 that approximates it; bounds were set here for any values at or beyond the usual limits of such assays
- recorded-conditions: source organism: Mammarenavirus lassaense
reported-metric: pKd
# pKd: negative log10 of molar concentration; output just the value

QUERY: State the recorded pKd for this entry: `KENLYIKSI`
RESULT: 5.67
